Consider the following compounds and their measured pest or weed control at 140 g/ha readings.
System: Key Broadleaf Weed and Crop Species
method summary: Post-Emergent Test II: postemergent herbicidal activity, visual rating after 14 d (Table 7)
Assay type: in vivo
condition set: post-emergence, 336 h, wild poinsettia (Euphorbia heterophylla), 140 g ai/ha, read-out: Visual Growth Reduction (%) 14 Days After Application EPHHL
quantity kind: pest or weed control at 140 g/ha

• COC(=O)c1nc(-c2ccc3c(c2)OC(F)(F)O3)c(F)c(N)c1OC = 95 to 100%
• COC(=O)c1nc(-c2ccc3c(c2)OC(F)(F)O3)c(C)c(N)c1Cl = 0 to 29%
• COC(=O)c1nc(-c2ccc3c(c2)OC(F)(F)O3)c(Cl)c(N)c1Cl = 0 to 29%
• COc1c(C(=O)O)nc(-c2cc3c(cc2F)OC(F)(F)O3)c(F)c1N = 95 to 100%
• Nc1c(F)c(-c2cc3c(cc2F)OC(F)(F)O3)nc(C(=O)O)c1Cl = 95 to 100%
• COC(=O)c1nc(-c2cc3c(cc2F)OC(F)(F)O3)c(F)c(N)c1OC = 45 to 59%
• COC(=O)c1nc(-c2ccc3c(c2)OC(C)(C)O3)c(F)c(N)c1Cl = 95 to 100%
• COC(=O)c1nc(-c2ccc(Cl)c3c2OC(F)(F)O3)c(Cl)c(N)c1Cl = 0 to 29%
• COC(=O)c1nc(-c2cc3c(cc2Cl)OC(F)(F)O3)c(F)c(N)c1Cl = 0 to 29%
• COC(=O)c1nc(-c2cccc3c2OCO3)c(F)c(N)c1Cl = 0 to 29%
• COC(=O)c1nc(-c2ccc(F)c3c2OC(F)(F)O3)c(F)c(N)c1Cl = 0 to 29%
• COC(=O)c1nc(-c2ccc3c(c2C)OC(F)(F)O3)cc(N)c1Cl = 0 to 29%
• COC(=O)c1nc(-c2cc3c(cc2F)OC(F)(F)O3)cc(N)c1Cl = 60 to 74%
• COC(=O)c1nc(-c2ccc3c(c2F)OC(F)(F)O3)nc(N)c1Cl = 95 to 100%
• COC(=O)c1nc(-c2cc(F)c3c(c2)OC(F)(F)O3)c(F)c(N)c1Cl = 0 to 29%
• COC(=O)c1nc(-c2cc3c(cc2F)OC(F)(F)O3)nc(N)c1OC = 95 to 100%
• COC(=O)c1nc(-c2cc3c(cc2F)OC(F)(F)O3)c(F)c(N)c1F = 0 to 29%
• Nc1cc(-c2cc(F)c3c(c2)OC(F)(F)O3)nc(C(=O)O)c1Cl = 0 to 29%

Every entry's value here was drawn from patent US9149038B2.
